Assay: qHTS for Inhibitors of human tyrosyl-DNA phosphodiesterase 1 (TDP1): qHTS in cells in absence of CPT; note: nearly all actives have a fitted effect of over 55% in size
Conditions: DT40 Tdp1-/- hTDP1 cells, no CPT, ATP luminescence, 48 h
Protocol: Human tyrosyl-DNA phosphodiesterase 1 (TDP1) is a novel repair gene, and we propose to use it as a new target for anticancer drug development. […] For the primary screen, Tdp1-/-;hTDP1 cells will be exposed to small molecules in the presence or absence of CPT, and their growth kinetics will be evaluated after 48 hours by measuring ATP activity. […] The hit compounds will then be evaluated in the presence or absence of CPT using Tdp1-/- cells. […]
Among all 420,000 compounds or so, about 64,000 (15%) were called active. About 27% were inconclusive and are not listed. Calls come from the whole dose curve; as a rule, active = well fitted inhibition curve with a large enough effect; inconclusive = small, poorly fitted or top-dose-only effect; inactive = flat fitted curve, though single readings scatter. The list is a sample of the results.
Lab note: assign the record to one of YES = active, NO = inactive

INSERT INTO assay_data (molecule, group) VALUES
  ('Cc1ccnc(NC(=O)CCCOc2ccccc2)c1', 'NO'),
  ('O=C(CS(=O)(=O)Cc1ccccc1)NCC1CCCO1 (configuration not stated)', 'NO'),
  ('O=C(O)/C=C\C(=O)Nc1ccc(OCc2ccccc2)cc1', 'NO'),
  ('C=CCc1cc(C)ccc1OCCCn1ccnc1', 'NO');

Now look at this one.
**Q:** // return assay outcome for Nc1ccc2c(c1)C(O)c1ccc(Cl)cc1-2 (configuration not stated)
**A:** NO
